Test: yeast display, Sf9 membrane polyspecificity reagent, FACS + sequencing; frameworks hold sequencing errors

biopolymerSequence	polyreactivity (PSR sort gate)
QVQLVESGGGLVQAGGSLRLSCAASGSIFWKYAMGWYRQAPGKERELVAAISRSSSTTYYADSVKGRFTISRDNAKNTVYLQMNSLKPEDTAVYYCAADWRTKGYDSLGQGTQVTVSS	high polyreactivity
QVQLVESGGGLVQAGGSLRLSCAASGRIFYYNTMGWYRQAPGKERELVAAITRSGGSTYYADSVKGRFTISRDNAKNTVYLQMNSLKPEDTAVYYCAARSTHPGSVGYWGQGTQVTVSS	high polyreactivity
QVQLVESGGGLVQAGGSLRLSCAASGLTFTGYAMGWYRQAPGKERELVAAISRGDSTYYAYSVNGRFTISRDNAKNTVYLQMNSLKPEDTAVYYCAAYKGYGRRPGVSGYYWGQGTQVTVSS	high polyreactivity
QVQLVESGGGLVQAGGSLRLSCAASGSTFWHNAMGWYRQAPGKERELVAAISYSGGNTNYADSVKGRFTISRDNAKNTVYLQMNSLKPEDTAVYYCNAPDVFPQAIYDYWGQGTQVTVSS	high polyreactivity

====

Experiment: yeast display, Sf9 membrane polyspecificity reagent, FACS + sequencing; frameworks hold sequencing errors
testReadout: polyreactivity (PSR sort gate)

biopolymerSequence	polyreactivity (PSR sort gate)
QVQLVESGGGLVQAGGSLRLSSAASGRTFRYNAMGWYRQAPGKERELVAAIRRGGSTNYADSVKGRITISRDNAKNTVYLQMNSLKPEDTAFYFCAKGHPNDFGYWGQGTQVTVSS	high polyreactivity
QVQLVESGGGLVQAGGSLRLSCDASGPIFAWNGMGWYRPAPGKERELVAVITSGGNTNYADSVKGRFTFSLDNAKNTVFIQMNSLKPEDTAVYDCATKGYAKRTRFWSHYDYWGQGTQVNVSS	high polyreactivity
QVQLVESGGGLVQAGGSLRLSCAASGSIFWSYAMGWYRQAPGKERELVAAITRSGGSTYYADSVKGRFTISRDNAKNTVYLQINSLKPEDTAVDYCNAATPYSWGYRRGYWGQGTQVTVSS	high polyreactivity
QVQLVESGGGLVQAGGSLRLSCAASGRTFPRNAMGWYRQAPGKERELVAAITTSGGRTYYADSVKGRFTISRDNAKNTVYLQMNSLKPEDTAVYYCAVRYDTLAWYAFYYWGQGTQVTVSS	low polyreactivity

# ---- query sequence ----
Noted for QDQLVESAGGLVQAGGSLRLSCAASASTFIVYAMGWYRQAPGKEREFVATINHSGDSTYYADSVKGRFTISRDNAKNTVYLQMNSLKPEDTAVYYCNATVVFVQYVDYDYWGQGTLVTVSS : its polyreactivity (PSR sort gate) reads low polyreactivity

====

Test: yeast display, Sf9 membrane polyspecificity reagent, FACS + sequencing; frameworks hold sequencing errors
testReadout: polyreactivity (PSR sort gate)

Consider the worked cases shown below.
biopolymerSequence	polyreactivity (PSR sort gate)
QVKLVESGGGLVQAGGSLRLSCAASGSIFWYNAMGWYRQAPGKERELVAAIRWRGGSTYYADSVNGRFTISRDNAKNTVYLQMNSLKPEDTAVYYCAAQVYVSQMYTSYYYWGQGTQVTVSS	high polyreactivity
QVQLVESGGGLVQAGGSLRLSCAASGRIFGSYAMGWYRQAPGKEREFVAAISVGSGSTYYADSVKGRFTISRDNAKNTVYLQMNSLKPEDTAVYYCAAENLYIDPRDWYGTWDTGYYWGQGTQVTVSS	high polyreactivity
QVQLVESGGGLVQAGGILRLSCAASGRIFCSYAMGWYRQAPGKERELVAAITRGASTNYADSVKGRFTISRDNAKNIVYLQMNSLKPEDTAVYYCAAGWGRYPILGYYYWGQGTQVTVSS	high polyreactivity
QVQLVESGGGLVQAGGSLRLSCAASGYILFAYAMGWYRQAPGKERALVATITTSGGITYYADSVKGRFTISRDNAKNTVYLQMNSLKPEDTAVYYCAAAEGGGLVTYDYWGQGTQVTVSS	low polyreactivity
PVQLVESGGGLVQAGGSLRLSCAASGFTFSYNDMGWYRQAPGKERELVAAITSTGGTYYADSVKGRFTISRDNAKNTVYLQMNSLKPEDTAVYYCAADRIGGPGSYLYDYWGQGTQVTVSS	low polyreactivity

Reported polyreactivity (PSR sort gate) of QVQLVESGGGLVQAGGSLRLSCAASGSIFVSNAMGWYRQAPGKERELVAAISSGGSTNYADSVKGRFTISRDNAKNTVYLQMNSLKPEDTAVYYCAARYYGYAGRFDYWGQGTQVTVSS : low polyreactivity

The sequence listed as LVQLVESGGGLVQAGGSLRLSCAASGSTFFYAMGWYRQAPGKERELVAGIVWSGGSTYYADSVKGRFTISRDNAKNTVYLQMNSLKPEDTAVYYCPAEYTDDYWGQGTQVTVSS shows polyreactivity (PSR sort gate) equal to low polyreactivity

For record QVQLVESGGGLVQAGGSLRLRCAASGSIFPYNAMGWYRQAPGKERELVAAISKRGRSTYYADSVKGRFTISRDNAKNTVYLHMNSLKPEDTAVYYSAARYPPYRSWYSYDYWGQGTQVTVSS the listed polyreactivity (PSR sort gate) is low polyreactivity

Lab note: measured polyreactivity (PSR sort gate) of QVQLVESGGGLVQAGGSLRLSCAASGLIFYPYAMGWYRQAPGKERELVAAITSDGSTYYADSVKGRFTISRDNAKNTVYLQMNSLKPEDTAVYYCAVVVAYFDDDYGLSWFYEYDYWGQGTQVTVSS was low polyreactivity

According to the records, this sequence QVQLEESGGGLVQAGGSLSLSCAASGFIFPTYAMGWYRQAPGKERELVAVISGGGRTKYADSVKGRFTISRDNAKNTVYLQMNSLKPEDTAVYYCNADYWKGWTKFEYWGQGTQVTLSS displays polyreactivity (PSR sort gate) of high polyreactivity

Recorded result, QVQLVESGGGLVQAGGSLRLSCAASGLIFPRNAMGWYRQAPGKERELVAVISRSGTSTYYADSVKGRFTISRDNAKNTVYLQMNSLKPEDTAVYYCAAAPSQVYRARFYYWGQGTQVTVSS , polyreactivity (PSR sort gate): high polyreactivity

====

Experiment: yeast display, Sf9 membrane polyspecificity reagent, FACS + sequencing; frameworks hold sequencing errors
testReadout: polyreactivity (PSR sort gate)

Worked examples follow.
biopolymerSequence	dataValue
QVQLVESGGGLVQAGGSLRLSCAASGYSFRIYAMGWYRQAPGKERELVATITNGGSTHYADSEKGRFTISRDNAKNTVYLQMNSLKPEDTAVYYCAAYLPGWELRDYGYWGQGTQVTVSS	high polyreactivity
QVQLVESGGGLVQAGGSLRLSCAASGFTFPENAMGWYRQAPGKERELVAAISYRGASTFYADSVKGRFTISRDNAKNTVYLQMNSLKPEDTAVYYCATDPRIRYQGNPYDYWGQGTKVTVSS	high polyreactivity
QVQLVESGGGLVQAGGSLRLSCAASGRIYSSYAMGRYRQAPGKERELVAAISYSGDRTYYADSVKGRFTISRDNAKNTVYLQMNSLKPEDTAVYYCAARRVTRTTVYRYQYYYWGQGTQVTVSS	high polyreactivity
QVQLVESGGGLVQAGGSLRLSCAPSGRIFPYYAMGRYRQAPGKERELVATITASSGSTYYADSVKGRFTISRDNAKNTVYLQMNSLKPEDTAVYYCAAGFVYRPGSYIRFDYWGQGTQVTVSS	high polyreactivity
QVQLVESCGGLVQEGGSLRLSCAASGRIFVVSAMGRYRQAPGKERELVAAISKRGGSTYYADSVKGRFTISRDNAKKTVYLQMNSLKPEDTAVYYCAKSRLVRGRSSYDYWGHGTQVTVSS	high polyreactivity

Entry under test: QVQLVESGGGLVQAGGSLRLSCAASGRIFEYYAMGWYRQAPGKERELVAAIRSGGRTYYADSVKGRFTISRDNAKNTVYLQMNSLKPEDTAVYYCNKLYRGGYGYWGQGTQVTVSS . Its polyreactivity (PSR sort gate) was high polyreactivity

So, QVQLVESGGGLVQAGGSLLLSCAASGSTFGANAMGWYRQAPGKEREFVAAISRSGVRTYYADSVKGRFTISRDNAKNTVYLQMNSLKPEDTAVYYCAADGYWWTYTRYDYWGQGTQVTVSS ? Its polyreactivity (PSR sort gate) was low polyreactivity

Entry EVQLVESRGGLVQAGGSLRLSCAASGRIFRVYTMGWYRQAPGKERELVAAISRGGTTTYADSVKGRFTISCDNAKNTVYLQMNSLKPEDTAVYYCNARGWFRGEFDYWGQGTQVTVSS ; polyreactivity (PSR sort gate) = high polyreactivity

The recorded polyreactivity (PSR sort gate) for entry QVQLVESGGGLVQAGGSLRLSCAASGRIFSRNAMGWYRQAPGKEREFVAAISRRGTSTYYADSVKGRFTISRDNAKNTVYLQMNSLIPEDTAVYYCNAGGSPWYKPVYYRALYDYWGQGTQVTVSS equals high polyreactivity

Lab book: polyreactivity (PSR sort gate) of QVQLVESGGGLVQAGGSLRLSCAASGRTLWYYTMGWYRQAPGKERELVADITRGTSTNYADSVKGRFTISRDNAKNSVYLQMNSLKPEDTAVYYCNRAHGRSRYSRDYESWGQGTQVTVSS noted as low polyreactivity

Per the records, this sequence ( QVQLGESGGGLVQAGGSLRLSCAASGSIFVPYAMGWYRQAPGKERELVAVITSGGSTYYADSVKGRFTISRDNAKNTVYLQMNSLKPEDTAVYYCYADLYYVWSTLSQFDYWGQGTQVTVSS ) has polyreactivity (PSR sort gate) equal to low polyreactivity
